# reported Synergy Score SNU-C2B; entries follow
Tested on: SNU-C2B
run_description: Drug combination screen (ATPlite, Synergy Score), SNU-C2B
assay_context: compound in combination with IgG1-hDR5-01-G56T-E430G + IgG1-hDR5-05-E430G; SNU-C2B; 72 hour ATPlite, 6x6 matrix
No unit in the answer, only the number.

Worked set:
smiles_string | target_or_system | measurement_kind | value_measured
Oc1c2ccccc2c2c3c(cccc13)N=N2 | SNU-C2B | Synergy Score SNU-C2B | 2
C[C@]1(c2nc3c(C(N)=O)cccc3[nH]2)CCCN1 | SNU-C2B | Synergy Score SNU-C2B | 0.1
COCCn1c2c([n+](Cc3cnccn3)c1C)C(=O)c1ccccc1C2=O | SNU-C2B | Synergy Score SNU-C2B | 11.5

Look up Synergy Score SNU-C2B: C[C@H]1C[C@@H]2[C@H]([C@@H](O)C[C@@]3(C)[C@H]2CC[C@]3(O)C(=O)CO)[C@@]2(C)C=CC(=O)C=C12
0.6

Look up Synergy Score SNU-C2B: OCCn1cc(-c2ccc3c(c2)CC/C3=N\O)c(-c2ccncc2)n1
0.7

Look up Synergy Score SNU-C2B: C[C@@H]1CCN(C(=O)CC#N)C[C@@H]1N(C)c1ncnc2[nH]ccc12
0.1

Look up Synergy Score SNU-C2B: Cn1cc(C2=C(c3cn(C4CCN(Cc5ccccn5)CC4)c4ccccc34)C(=O)NC2=O)c2ccccc21
0.5

Look up Synergy Score SNU-C2B: CCCS(=O)(=O)Nc1ccc(F)c(C(=O)c2c[nH]c3ncc(-c4ccc(Cl)cc4)cc23)c1F
0.5
